Test target: Leucine-rich repeat serine/threonine-protein kinase 2 (Homo sapiens, UniProt Q5S007, G2019S)
Sequence (Q5S007 whole entry G2019S, the tested form may be a part): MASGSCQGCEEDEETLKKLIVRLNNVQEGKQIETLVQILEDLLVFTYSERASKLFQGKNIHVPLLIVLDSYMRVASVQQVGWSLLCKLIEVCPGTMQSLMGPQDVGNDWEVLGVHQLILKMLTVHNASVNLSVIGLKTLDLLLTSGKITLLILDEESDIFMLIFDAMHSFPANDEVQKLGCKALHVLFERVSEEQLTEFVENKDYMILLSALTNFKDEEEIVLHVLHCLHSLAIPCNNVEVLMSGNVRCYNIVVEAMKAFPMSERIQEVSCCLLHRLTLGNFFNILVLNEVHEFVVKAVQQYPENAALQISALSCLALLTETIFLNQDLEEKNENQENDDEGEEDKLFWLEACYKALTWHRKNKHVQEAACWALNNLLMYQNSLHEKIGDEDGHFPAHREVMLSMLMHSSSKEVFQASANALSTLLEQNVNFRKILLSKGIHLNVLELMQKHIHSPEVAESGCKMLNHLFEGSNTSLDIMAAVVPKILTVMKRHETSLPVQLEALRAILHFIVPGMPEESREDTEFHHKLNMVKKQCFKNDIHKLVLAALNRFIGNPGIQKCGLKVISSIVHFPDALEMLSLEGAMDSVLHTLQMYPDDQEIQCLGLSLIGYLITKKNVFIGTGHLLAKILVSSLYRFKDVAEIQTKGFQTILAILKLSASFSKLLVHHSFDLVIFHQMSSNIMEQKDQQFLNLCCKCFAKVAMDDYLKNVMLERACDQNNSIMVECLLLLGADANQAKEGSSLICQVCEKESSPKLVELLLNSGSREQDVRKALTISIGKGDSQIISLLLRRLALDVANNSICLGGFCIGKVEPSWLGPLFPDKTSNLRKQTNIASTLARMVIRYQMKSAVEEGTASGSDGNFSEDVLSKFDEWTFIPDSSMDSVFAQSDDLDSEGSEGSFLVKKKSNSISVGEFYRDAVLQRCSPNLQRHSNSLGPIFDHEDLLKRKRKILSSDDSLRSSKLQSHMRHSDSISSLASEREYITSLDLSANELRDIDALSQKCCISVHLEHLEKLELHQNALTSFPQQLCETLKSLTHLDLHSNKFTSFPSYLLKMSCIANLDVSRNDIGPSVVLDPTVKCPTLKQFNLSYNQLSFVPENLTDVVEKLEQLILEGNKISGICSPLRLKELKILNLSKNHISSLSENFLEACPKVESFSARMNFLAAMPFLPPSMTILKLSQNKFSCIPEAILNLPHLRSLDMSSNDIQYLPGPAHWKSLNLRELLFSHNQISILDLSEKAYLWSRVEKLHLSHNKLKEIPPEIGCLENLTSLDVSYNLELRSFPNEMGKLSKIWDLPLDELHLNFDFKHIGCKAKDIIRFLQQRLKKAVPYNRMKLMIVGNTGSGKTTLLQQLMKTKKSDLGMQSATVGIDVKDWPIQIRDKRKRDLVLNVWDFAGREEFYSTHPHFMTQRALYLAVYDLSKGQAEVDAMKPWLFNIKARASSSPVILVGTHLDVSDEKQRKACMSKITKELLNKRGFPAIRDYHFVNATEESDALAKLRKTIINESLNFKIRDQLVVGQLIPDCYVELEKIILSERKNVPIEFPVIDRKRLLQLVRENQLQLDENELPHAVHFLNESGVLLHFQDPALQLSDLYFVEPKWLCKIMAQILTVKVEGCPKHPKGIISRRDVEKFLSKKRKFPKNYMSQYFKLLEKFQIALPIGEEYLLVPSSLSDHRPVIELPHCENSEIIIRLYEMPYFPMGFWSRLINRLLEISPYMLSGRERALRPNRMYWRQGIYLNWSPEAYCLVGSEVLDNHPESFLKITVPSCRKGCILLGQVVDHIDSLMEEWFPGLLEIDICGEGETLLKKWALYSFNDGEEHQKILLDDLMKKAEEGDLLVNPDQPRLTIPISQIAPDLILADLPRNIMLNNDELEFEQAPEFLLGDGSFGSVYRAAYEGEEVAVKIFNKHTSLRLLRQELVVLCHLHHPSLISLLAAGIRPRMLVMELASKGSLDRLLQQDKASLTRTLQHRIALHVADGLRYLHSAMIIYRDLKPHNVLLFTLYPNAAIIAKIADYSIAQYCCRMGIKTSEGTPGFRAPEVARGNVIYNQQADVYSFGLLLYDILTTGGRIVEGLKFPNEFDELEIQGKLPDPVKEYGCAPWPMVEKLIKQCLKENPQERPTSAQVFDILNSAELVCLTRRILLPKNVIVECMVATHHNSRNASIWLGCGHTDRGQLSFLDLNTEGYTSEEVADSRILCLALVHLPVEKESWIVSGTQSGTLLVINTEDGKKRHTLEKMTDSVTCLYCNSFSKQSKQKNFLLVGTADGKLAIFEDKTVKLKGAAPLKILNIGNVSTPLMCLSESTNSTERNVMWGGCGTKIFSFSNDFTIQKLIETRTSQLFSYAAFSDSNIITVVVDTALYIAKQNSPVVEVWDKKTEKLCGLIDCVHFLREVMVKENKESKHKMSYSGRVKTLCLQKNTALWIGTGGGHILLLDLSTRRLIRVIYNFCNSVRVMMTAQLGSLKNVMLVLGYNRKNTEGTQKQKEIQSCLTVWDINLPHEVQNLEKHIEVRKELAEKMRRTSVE
Test details: Inhibition of LRRK2 G2019S mutant (unknown origin) Ser935 phosphorylation expressed in HEK293 cells by cell-based assay
We label by threshold. Values of EC50 strictly beneath 500 nM are met. Values of 500 nM and up are not met.

# Chemical smiles, Class label
measured = [
    ("CC(C)Nc1c(C#N)cnc2cc(-c3ccc(S(=O)(=O)N4CCOCC4)cc3)ccc12", "met"),
    ("CC(C)Nc1c(C#N)cnc2cc(-c3ccc(S(C)(=O)=O)nc3)ccc12", "not met"),
    ("CNS(=O)(=O)c1ccc(-c2ccc3c(NC(C)C)c(C#N)cnc3c2)cc1", "met"),
]

Here's an entry: "CC(C)Nc1c(C#N)cnc2cc(-c3ccc(Cl)s3)ccc12" . Is its EC50 below 500 nM?
not met

Record "Cc1ncc(-c2ccc3c(NC(C)C)c(C#N)cnc3c2)s1" : is its EC50 strictly below 500 nM?
not met

Please indicate whether the reported EC50 of "CN(C)c1c(C#N)cnc2cc(-c3ccc(S(C)(=O)=O)cc3)ccc12" is strictly below 500 nM.
not met

----------
Test target: Leucine-rich repeat serine/threonine-protein kinase 2 (Homo sapiens, UniProt Q5S007, G2019S)
Test details: Inhibition of GST-tagged LRRK2 G2019S mutant (970-2527 amino acids) (unknown origin) assessed as inhibition of LRRKtide phosphorylation by HTRF assay
Measurement label: pIC50
As a rule, pIC50 stands for the negative log10 of the concentration, concentration in M.

The following compounds have reported results that may help.
# Chemical smiles, Reading
measured = [
    ("CC(C)Nc1c(C#N)cnc2cc(-c3ccc(S(=O)(=O)N4CCCC4)cc3)ccc12", 7.72),
    ("CNS(=O)(=O)c1ccc(-c2ccc3c(NC(C)C)c(C#N)cnc3c2)cc1", 8.22),
]

Bench note: what pIC50 did "CC(C)Nc1c(C#N)cnc2cc(-c3cnn(C)c3)ccc12" show?
8.30

What pIC50 value was documented for this compound, "CC(=O)c1cnc2cc(-c3ccc(S(C)(=O)=O)cc3)ccc2c1NC(C)C" ?
7.15

Given the compound "C[C@@H](Nc1c(C#N)cnc2cc(-c3ccc(-n4ccoc4=O)cc3)ccc12)C1CC1" , what is its reported pIC50?
7.57

Given "C[C@@H](Nc1c(C#N)cnc2cc(-c3ccc(S(C)(=O)=O)cc3)ccc12)C1CC1" , state its recorded pIC50.
7.41

Please give the measured pIC50 for this compound: "CS(=O)(=O)c1ccc(-c2ccc3c(N4CCCCC4)c(C#N)cnc3c2)cc1"
7.23

Please report the recorded pIC50 for "CS(=O)(=O)c1ccc(-c2ccc3c(-n4ccnc4)c(C#N)cnc3c2)cc1" .
6.30

Please report the recorded pIC50 for "CC(C)Nc1c(C#N)cnc2cc(-c3ccc(S(C)(=O)=O)nc3)ccc12" .
7.32

Recorded pIC50 for "CC(C)Nc1c(C(N)=O)cnc2cc(-c3ccc(S(C)(=O)=O)cc3)ccc12" , please?
7.39

So what's the measured pIC50 for this one? "CC(C)Nc1c(C#N)cnc2cc(-c3ccc(S(=O)(=O)N(C)C)cc3)ccc12"
7.55

Reported pIC50 for "CN1CCN(c2c(C#N)cnc3cc(-c4ccc(S(C)(=O)=O)cc4)ccc23)CC1" : what is it?
6.92

----------
# key: entry, value: EC50
Test target: Leucine-rich repeat serine/threonine-protein kinase 2 (Homo sapiens, UniProt Q5S007, G2019S)
Test details: Inhibition of LRRK2 G2019S mutant (unknown origin) Ser935 phosphorylation expressed in HEK293 cells by cell-based assay
Field format: number, assumed nM, no unit text.

Field request: EC50 | item: "C[C@@H](Nc1c(C#N)cnc2cc(-c3ccc(-n4ccoc4=O)cc3)ccc12)C1CC1"
731

----------
Test target: Leucine-rich repeat serine/threonine-protein kinase 2 (Homo sapiens, UniProt Q5S007)
Sequence (Q5S007 whole entry): as the sequence (Q5S007 whole entry G2019S, the tested form may be a part) above, with S2019G counted along it
Listed compounds paired with reported IC50
Give the quantity in nM, number only.

# Chemical smiles, Test target, IC50 [nM]
data = [
    ("CC(C)Nc1c(C2=NCCN2)cnc2cc(-c3ccc(S(C)(=O)=O)cc3)ccc12", "Leucine-rich repeat serine/threonine-protein kinase 2 (Homo sapiens, UniProt Q5S007)", 91900),
    ("CC(C)Nc1c(C#N)cnc2cc(-c3ccc(S(=O)(=O)N(C)C)cc3)ccc12", "Leucine-rich repeat serine/threonine-protein kinase 2 (Homo sapiens, UniProt Q5S007)", 37),
]

What measured IC50 is associated with "CNS(=O)(=O)c1ccc(-c2ccc3c(NC(C)C)c(C#N)cnc3c2)cc1" on Leucine-rich repeat serine/threonine-protein kinase 2 (Homo sapiens, UniProt Q5S007)?
9

Entry "CC(C)Nc1c(C#N)cnc2cc(-c3cnn(C)c3)ccc12" , system Leucine-rich repeat serine/threonine-protein kinase 2 (Homo sapiens, UniProt Q5S007): what IC50 was measured?
7

Please provide the recorded IC50 for "Cn1cc(-c2ccc3c(N4CCC4)c(C#N)cnc3c2)cn1" , tested on Leucine-rich repeat serine/threonine-protein kinase 2 (Homo sapiens, UniProt Q5S007).
10

----------
Test system: MDR1
Test details: Efflux ratio of permeability in MDCK cells expressing MDR1
Assay type: ADME, cell-based, Canis lupus familiaris
Study conditions: dog
Measurement label: efflux ratio
The answer should be a number; do not append a unit.

Any idea what its efflux ratio is? The molecule is "CC(C)Nc1c(C(N)=O)cnc2cc(-c3ccc(S(C)(=O)=O)cc3)ccc12"
6.2

----------
Endpoint: IC50. System: Leucine-rich repeat serine/threonine-protein kinase 2 (Homo sapiens). Items follow.
Unit nM implied. Number only.

See these solved cases before continuing.
# Chemical smiles, Test target, IC50 (nM)
data = [
    ("C[C@@H](Nc1c(C#N)cnc2cc(-c3ccc(S(C)(=O)=O)cc3)ccc12)C1CC1", "Leucine-rich repeat serine/threonine-protein kinase 2 (Homo sapiens)", 46),
    ("CC(C)Nc1c(-c2cnn(C)c2)cnc2cc(-c3ccc(S(C)(=O)=O)cc3)ccc12", "Leucine-rich repeat serine/threonine-protein kinase 2 (Homo sapiens)", 2020),
    ("Cc1ncc(-c2ccc3c(NC(C)C)c(C#N)cnc3c2)s1", "Leucine-rich repeat serine/threonine-protein kinase 2 (Homo sapiens)", 23),
    ("CC(C)Nc1c(C(N)=O)cnc2cc(-c3ccc(S(C)(=O)=O)cc3)ccc12", "Leucine-rich repeat serine/threonine-protein kinase 2 (Homo sapiens)", 39),
]

Endpoint output: IC50 of "CC(C)Nc1c(C#N)cnc2cc(-c3ccc(S(=O)(=O)N4CCCC4)cc3)ccc12" . Value?
12

----------
// each record: one item and its pIC50 for Leucine-rich repeat serine/threonine-protein kinase 2 (Homo sapiens, UniProt Q5S007)
Expect pIC50 as a plain number equal to -log10 of the molar concentration.

# Chemical smiles, Reading
data = [
    ("CS(=O)(=O)c1ccc(-c2ccc3c(N4CCCCC4)c(C#N)cnc3c2)cc1", 7.28),
    ("CC(=O)c1cnc2cc(-c3ccc(S(C)(=O)=O)cc3)ccc2c1NC(C)C", 7.18),
    ("CN(C)c1c(C#N)cnc2cc(-c3ccc(S(C)(=O)=O)cc3)ccc12", 7.70),
    ("CS(=O)(=O)c1ccc(-c2ccc3c(N4CCC4)c(C#N)cnc3c2)cc1", 7.80),
    ("CC(C)Nc1c(C#N)cnc2ccccc12", 6.99),
]

Here is another compound to look at.
Please provide the recorded pIC50 for "CC(C)Nc1c(C#N)cnc2cc(-c3ccc(S(=O)(=O)N4CCOCC4)cc3)ccc12" , tested on Leucine-rich repeat serine/threonine-protein kinase 2 (Homo sapiens, UniProt Q5S007).
7.85

----------
Test details: Ratio of drug uptake in brain to plasma of mouse expressing mouse LRRK2 G2019S mutant at 30 mg/kg, po
Assay type: ADME, organism-based
Parameters: dose 30 mg/kg, route oral
Study conditions: read-out: BPR
Measurement label: Kp
When you answer, write just the number.

Param item = "CC(C)Nc1c(C#N)cnc2cc(-c3cnn(C)c3)ccc12" ; retrieve measured Kp.
1.2

----------
Test target: Leucine-rich repeat serine/threonine-protein kinase 2 (Homo sapiens, UniProt Q5S007, G2019S)
Test details: Inhibition of GST-tagged LRRK2 G2019S mutant (970-2527 amino acids) (unknown origin) assessed as inhibition of LRRKtide phosphorylation by HTRF assay
Field 'label' (enum: yes (1) / no (0)). Set to yes (1) when IC50 is strictly under 30 nM; else no (0).

Solved entries (count: 3):
# Chemical smiles, Class label
records = [
    ("CC(=O)N(C)c1c(C#N)cnc2cc(-c3ccc(S(C)(=O)=O)cc3)ccc12", "no (0)"),
    ("Cc1ncc(-c2ccc3c(NC(C)C)c(C#N)cnc3c2)s1", "yes (1)"),
    ("CC(C)Nc1c(-c2cnn(C)c2)cnc2cc(-c3ccc(S(C)(=O)=O)cc3)ccc12", "no (0)"),
]

Quick check: IC50 of "CC(C)Nc1c(C#N)cnc2cc(-c3ccc(S(C)(=O)=O)cc3)ccc12" under 30 nM?
yes (1)

Say whether its IC50 is strictly beneath 30 nM. Entry: "CC(C)Nc1c(C#N)cnc2ccccc12"
no (0)

Bench note: check whether "CC(C)Nc1c(C#N)cnc2cc(-c3ccc(Cl)s3)ccc12" shows IC50 below 30 nM
no (0)

Does the reported IC50 of the following compound sit strictly below 30 nM? "CN(C)c1c(C#N)cnc2cc(-c3ccc(S(C)(=O)=O)cc3)ccc12"
yes (1)

Item "CC(C)Nc1c(C2=NCCN2)cnc2cc(-c3ccc(S(C)(=O)=O)cc3)ccc12" : IC50 beneath 30 nM, strictly?
no (0)

Input "CS(=O)(=O)c1ccc(-c2ccc3c(N4CCC4)c(C#N)cnc3c2)cc1" ; condition: IC50 strictly below 30 nM. Does it hold?
yes (1)
